Reported cell viability is given for each of the following molecules.
System: P12-Ichikawa
Test: cell viability relative to DMSO control; higher = less cytotoxic
Conditions: RPMI 5 mM glucose + 10% FBS; 48 h; 0.000781 µM
Report the value in % with no unit label.

Some molecules with known cell viability results, for comparison:
{"MOLECULE": "C\\C1=C\\C(=O)OC2=C1C=CC(=C2)O", "UNIT ABBREV": "%", "EXPERIMENTAL VALUE": 112}
{"MOLECULE": "COc1ccc(CC2NCCc3cc(OC)c(OC)cc32)cc1OC (stereo not given)", "UNIT ABBREV": "%", "EXPERIMENTAL VALUE": 85.5}
{"MOLECULE": "CN1[C@@H]2CC(OC(=O)[C@@H](CO)c3ccccc3)C[C@H]1[C@H]1O[C@H]12 (stereo not given in full)", "UNIT ABBREV": "%", "EXPERIMENTAL VALUE": 98.8}
{"MOLECULE": "Cc1ccccc1N1C(=O)c2cc([S+](N)(=O)[O-])c(Cl)cc2NC1C (stereo not given)", "UNIT ABBREV": "%", "EXPERIMENTAL VALUE": 122}
{"MOLECULE": "COc1ccc(Cc2ccc(NC(N)=O)cc2)cc1-c1cccc(Cl)c1", "UNIT ABBREV": "%", "EXPERIMENTAL VALUE": 114}

Which cell viability is listed for CC(C)OC(=O)OCOP(=O)(CO[C@H](C)Cn1cnc2c(N)ncnc21)OCOC(=O)OC(C)C.O=C(O)C=CC(=O)O ?
105

Which cell viability is listed for CN[S+](=O)([O-])Cc1ccc2[nH]cc(CCN(C)C)c2c1 ?
115

Which cell viability is listed for Oc1ccc2c3c1O[C@H]1c4[nH]c5c(c4C[C@@]4(O)[C@@H](C2)N(CC2CC2)CC[C@]314)C[C@@]1(O)[C@H]2Cc3ccc(O)c4c3[C@@]1(CCN2CC1CC1)[C@H]5O4 ?
114

----------
Test system: P12-Ichikawa
Test: cell viability relative to DMSO control; higher = less cytotoxic
Settings: HPLM + 10% dialyzed FBS; 48 h; 0.00702 µM
Reported cell viability is given for each of the following compounds.
Report the value in % with no unit label.

Some compounds with known cell viability results, for comparison:
{"COMPOUND": "CC1=CC=CC=C1N2\\C(=N/C3=C(C(=CC=C3)C)C2=O)C[N]4C=NC5=C4N=CN=C5N", "SYSTEM UNDER TEST": "P12-Ichikawa", "cell viability (%)": 122}
{"COMPOUND": "CC(C)NCC(O)COc1ccc(COCCOC(C)C)cc1 (stereo not given)", "SYSTEM UNDER TEST": "P12-Ichikawa", "cell viability (%)": 105}
{"COMPOUND": "O=C(OC)[C@]12CC[C@@]3(C)[C@]4(C)CC[C@H]5[C@@](C)(C)C(=O)C(=C[C@]5(C)C4=CC(=O)[C@@H]3[C@@H]2C[C@](C)(C)CC1)C#N", "SYSTEM UNDER TEST": "P12-Ichikawa", "cell viability (%)": 96.3}

Which cell viability is listed for CC(C)C(C)/C=C/C(C)C1CCC2C3=CC=C4CC(O)CCC4(C)C3CCC21C (stereo not given) ?
97.8

Which cell viability is listed for CC[C@H](CC[C@@H](C)[C@H]1CC[C@H]2[C@@H]3C\C=C/4C[C@@H](O)CC[C@]4(C)[C@H]3CC[C@]12C)C(C)C ?
123

Which cell viability is listed for CC(C)c1cnn2c(NCc3ccccc3)cc(N[C@@H](CO)[C@H](O)CO)nc12 ?
124

Which cell viability is listed for CC(N[C@H]1C[C@@H]1c1ccccc1)c1ccc2c(c1)OCCO2 (stereo not given in full) ?
121

Which cell viability is listed for COc1ccc(-c2cc3nccn3c(Nc3ncccc3C(N)=O)n2)cc1OC ?
110

Which cell viability is listed for C[C@H](NC(=O)/C(C#N)=C/c1cccc(Br)n1)c1ccccc1 ?
112

Which cell viability is listed for CN(C)c1ccc(O)c2c1C[C@H]1C[C@H]3[C@H](N(C)C)C(O)=C(C(N)=O)C(=O)[C@@]3(O)C(O)=C1C2=O ?
105
